biological target: Aspartate--tRNA(Asp/Asn) ligase (Mycobacterium tuberculosis (strain ATCC 25618 / H37Rv)); assay: Assay for Asp RNA synthetase-1 from Mycobacterium tuberculosis; format: functional; parameters: scale not given: in the data most compounds retested in dose-response had high values; settings: 30 µM
Let's look at some compounds and their measured Percent Effect.

COMPOUND: COCCN1CCC(N(Cc2noc(C3CC3)n2)C(C)=O)C1 (configuration not stated)
Percent Effect [%]: -1.46
//
COMPOUND: CCCc1cc(=O)n(CC(N)=O)c(-n2nc(C)cc2C)n1
Percent Effect [%]: 3.6
//
COMPOUND: COC(=O)c1sccc1S(=O)(=O)N1CCC(Oc2cccnn2)CC1
Percent Effect [%]: -2.42
//
COMPOUND: Cc1noc(C2CCC3(CCN(C(=O)C4=CCCCC4)CC3)O2)n1 (configuration not stated)
Percent Effect [%]: -2.98
//
COMPOUND: Cc1ncccc1O[C@H]1CCN(C(=O)Cc2cccs2)CC[C@@H]1O
Percent Effect [%]: -2.28
//
COMPOUND: CS(=O)(=O)N[C@@H]1CCO[C@]2(CCN(C(=O)c3cnccn3)C2)C1
Percent Effect [%]: 4.35
//
COMPOUND: O=C(Cn1ccc2ccccc21)NCc1ccc(C(=O)O)cc1
Percent Effect [%]: 5.27
//
COMPOUND: Cc1cc(NC(=O)CN(C)C2CCCN(c3cccnn3)C2)n(C)n1 (configuration not stated)
Percent Effect [%]: 5.7
//
COMPOUND: COc1cc(CNCCc2nc(C)cs2)cc2c1OCCO2
Percent Effect [%]: -4.99
//
COMPOUND: Cc1nccc(C(=O)N2CCCN(Cc3cnn(C(C)C)c3)CC2)n1
Percent Effect [%]: -2.77
//
COMPOUND: Cc1cc(NC(=O)NCC(C)N2CCc3ccccc32)no1 (configuration not stated)
Percent Effect [%]: 2.59
//
COMPOUND: CN(Cc1ccccc1)C1COC2(CCN(Cc3nccs3)CC2)C1 (configuration not stated)
Percent Effect [%]: -2.36
//
COMPOUND: CC(Sc1nnnn1C1CCOCC1)C(=O)NC1CCCCC1 (configuration not stated)
Percent Effect [%]: 1.09
//
COMPOUND: CC(C)C1CN(C(=O)c2ccc(N3CCCC3)nc2)CCS1 (configuration not stated)
Percent Effect [%]: 12.9
//
COMPOUND: Cc1ccc(CN2CCC[C@]3(C(=O)O)CN(c4ncccn4)C[C@@H]3C2)o1
Percent Effect [%]: 7.77
//
COMPOUND: CNC(=O)[C@@H]1C[C@H]2CN(Cc3ccco3)C[C@H]2N1C
Percent Effect [%]: 1.3
//
COMPOUND: CC(C)c1cc(NC(=O)CN2CCc3ccccc3C2)on1
Percent Effect [%]: -1
//
COMPOUND: Cc1nn(C)c2cnn(CC(=O)NCCc3ccccc3)c12
Percent Effect [%]: -1.83
//
COMPOUND: CCOc1ccnc(N2CCN(C(=O)c3cn[nH]c3CC)CC2)n1
Percent Effect [%]: -1.77
//
COMPOUND: C=Cc1ccc(C(=O)N2CCCC(Nc3ccc(F)cc3)C2)cc1 (configuration not stated)
Percent Effect [%]: -0.502
//
COMPOUND: Cc1cc(OCC(=O)N2CCCC(c3ccn[nH]3)C2)no1 (configuration not stated)
Percent Effect [%]: -5.07
//
COMPOUND: COC(=O)c1cccc(C(=O)N2CCN(c3cccc(C)c3C)CC2)n1
Percent Effect [%]: -1.18
//
COMPOUND: COCCN1CC[C@@H](O)[C@@H]1Cc1ccccc1
Percent Effect [%]: 1.19
//
COMPOUND: Cn1cccc1C(=O)N1CCCN(CCCc2ccccc2)CC1
Percent Effect [%]: 0.0912
//
COMPOUND: CC(C)NC(=O)CC1COC2(CCN(Cc3ccccc3)CC2)C1 (configuration not stated)
Percent Effect [%]: -2.02
//
COMPOUND: CC(C)CN1CCCn2nc(CNC(=O)CCN)cc2C1
Percent Effect [%]: -0.839
//
COMPOUND: O=C(CC1CC1)NCc1cc(=O)n2c(n1)CN(Cc1ccoc1)CCC2
Percent Effect [%]: -2.64
//
COMPOUND: COc1cccc(CN2CCCC3(CCN(C(=O)c4ccco4)C3)C2)c1 (configuration not stated)
Percent Effect [%]: 0.0455
//
COMPOUND: COc1c(C2CCCN2C(=O)c2ccnc(N(C)C)c2)c(C)nn1C (configuration not stated)
Percent Effect [%]: 2.59
//
COMPOUND: CC(C)(C)NC(=O)C1CSCN1S(=O)(=O)c1ccc(F)cc1 (configuration not stated)
Percent Effect [%]: 5.02
//
COMPOUND: CCNc1nc2c(s1)C(=O)CN(C(=O)NCCc1ccccc1)C2
Percent Effect [%]: 2.72
//
COMPOUND: Cc1nn(C)c(N2CCOCC2)c1CNCc1nccs1
Percent Effect [%]: -2.7
//
COMPOUND: COc1ccc(C[C@H]2CN(C(=O)CN(C)C)CC[C@H]2OC)cc1
Percent Effect [%]: 0.341
//
COMPOUND: O=C(N[C@@H]1CN(Cc2ccccc2)C[C@@H]2CCCO[C@@H]21)C1CC1
Percent Effect [%]: 1.66
//
COMPOUND: O=C(NCCN1CCCCC1)c1nc(-c2ccc3cc[nH]c3c2)no1
Percent Effect [%]: 6.42
//
COMPOUND: COc1ccc(CCNC(=O)C2CCC(Cn3cnnn3)CC2)cc1 (configuration not stated)
Percent Effect [%]: -2.03
//
COMPOUND: COc1cc(CNC(=O)NCCCF)cc(Br)c1OC
Percent Effect [%]: -0.885
//
COMPOUND: O=C1CCCc2nccc(-c3ccccc3)c21
Percent Effect [%]: 1.6
//
COMPOUND: O=C(c1ccsc1)N1CCOC2(CCN(Cc3cccnc3)CC2)C1
Percent Effect [%]: 0.932
//
COMPOUND: Cc1cnn(C2CN(CC(=O)Nc3cccnc3)C2)c1
Percent Effect [%]: 3.91
//
COMPOUND: Cc1cc(CN(Cc2cccs2)CC2CCCO2)no1 (configuration not stated)
Percent Effect [%]: 1.32
//
COMPOUND: COCCCC1CCCN(C(=O)CCc2cc(O)no2)C1 (configuration not stated)
Percent Effect [%]: -7.41
